Origin of measurements: ChEMBL document CHEMBL1127135

experiment: Evaluated for pharmacokinetic parameter area under curve in rat at the dose 50 mg/kg ( 0-8 hr ); type: ADME, organism-based; design: time < 8 hr, dose 50 mg/kg; settings: in vivo
measurement type: AUC at 8 h (ng·h/mL)
Your answer is read as ng·h/mL, so omit the unit and give the number.

IN: Query (compound): CC(C)(C)C(=O)OCOC(=O)C1=C(/C=C\c2csnn2)CSC2C(NC(=O)/C(=N\O)c3csc(N)n3)C(=O)N12 (stereo unspecified) ; field requested: AUC at 8 h
OUT: 37900

###

experiment: Evaluated for pharmacokinetic parameter urine recovery in rabbit at the dose 20 mg/kg ( 0-24 hr ); format: ADME, organism-based, Oryctolagus cuniculus; set-up: dose 20 mg/kg; settings: read-out: UR
Parameter dose excreted: see the listing below.
Unit % implied. Number only.

{"molecule": "CC(C)(C)C(=O)OCOC(=O)C1=C(/C=C\\c2csnn2)CSC2C(NC(=O)/C(=N\\O)c3csc(N)n3)C(=O)N12 (configuration not stated)", "result": 17.2}

Let's switch to this molecule now.
IN: // dose excreted lookup, key: C=CC1=C(C(=O)O)N2C(=O)[C@@H](NC(=O)/C(=N\O)c3csc(N)n3)[C@H]2SC1
OUT: 64.2
